Known Kd of a selection of binders
- experimental target: T1, Cyno DV1/GV77 antigen, recombinant cynomolgus Vδ1 heterodimer (cynomolgus monkey)
- T1 construct: also called cyno TRDV1; Cyno DV1-77; not shown: delta CDR3/J, TCR constant region, zipper and tag; the whole gamma chain GV77
- T1 sequence (delta, as listed by the source limits assumed): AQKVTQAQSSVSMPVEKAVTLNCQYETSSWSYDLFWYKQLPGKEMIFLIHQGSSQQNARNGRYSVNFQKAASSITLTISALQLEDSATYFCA
- assay method text: SPR (Reichert 4SPR), antibody on Protein A chip, Vδ1 heterodimer at 6.25-100 nM as analyte
Report the figure in nM without appending any unit label.

Below, 2 binders whose answers are already recorded.
binder | measured
ADT1-4-2 (L74S) (antibody, V domains shown, Captured on Protein A) VH: EVQLQQSGPGLVKPSQTLSLTCAISGDSVSSKSAAWNWIRQSPSRGLEWLGRTYYRSKWSTDYAASVKSRITINPDTSKNQLSLQLNSVTPEDTAVYYCARTWVGYVDRWGQGTLVTVSS VL: DIQMTQSPPALSASVGDRVTITCRASQDINDWLAWYQHKPGKAPKLLIYDASSLESGVPSRFSGSGSGTEFTLTISSLQPDDFATYYCQQKYSAPQVTFGQGTRLEIKR | 61
ADT1-4-2 (antibody, IgG1, V domains shown, IgG1) VH: EVQLQQSGPGLVKPSQTLSLTCAISGDSVSSKSAAWNWIRQSPSRGLEWLGRTYYRSKWSTDYAASVKSRITINPDTSKNQLSLQLNSVTPEDTAVYYCARTWVGYVDRWGQGTLVTVSS VL: DIQMTQSPPALSASVGDRVTITCRASQDINDWLAWYQHKPGKAPKLLIYDASSLESGVPLRFSGSGSGTEFTLTISSLQPDDFATYYCQQKYSAPQVTFGQGTRLEIK | 2.6

Quick check: Kd of 1245_P02_G04 (antibody, IgG1, V domains shown, also called ADT1-4; parental ADT1-4) VH: QVQLQQSGPGLVKPSQTLSLTCAISGDSVSSKSAAWNWIRQSPSRGLEWLGRTYYRSKWSTDYAASVKSRITINPDTSKNQLSLQLNSVTPEDTAVYYCARTWSGYVDVWGQGTLVTVSS VL: DIQMTQSPPALSASVGDRVTITCRASQDINDWLAWYQHKPGKAPKLLIYDASSLESGVPSRFSGSGSGTEFTLTISSLQPDDFATYYCQQSYSTPQVTFGQGTRLEIK ? 397

Entry ADT1-4 (S74L) (antibody, V domains shown, Captured on Protein A; also called ADT1-4 (574L)) VH: QVQLQQSGPGLVKPSQTLSLTCAISGDSVSSKSAAWNWIRQSPSRGLEWLGRTYYRSKWSTDYAASVKSRITINPDTSKNQLSLQLNSVTPEDTAVYYCARTWSGYVDVWGQGTLVTVSS VL: DIQMTQSPPALSASVGDRVTITCRASQDINDWLAWYQHKPGKAPKLLIYDASSLESGVPLRFSGSGSGTEFTLTISSLQPDDFATYYCQQSYSTPQVTFGQGTRLEIKR : reported Kd = ? 77
